# Method description: gradient 5% acetonitrile 3 min, to 50% in 2 min, to 85% in 15 min, held 3 min, 100 µL/min
# Condition info: column: Zorbax Extend-C18 2.1 x 50 mm; eluents: water / acetonitrile, 0.1% formic acid
Test readout: RP-LC retention time (s)

| Molecule | Test readout | Unit symbol | Reported measurement |
| --- | --- | --- | --- |
| CCc1ccc(Nc2c(C(=O)N3CCCC(C)C3)cnc3nc(C)ccc23)cc1 (stereo unspecified) | RP-LC retention time | s | 702 |
| CCOC(=O)c1cnc(N2CCN(Cc3ccc4c(c3)OCO4)CC2)[nH]c1=O | RP-LC retention time | s | 605 |
| CN1CCN(c2nc3ccc(NC(=O)C4CC(=O)N(c5ccccc5)C4)cc3s2)CC1 (stereo unspecified) | RP-LC retention time | s | 561 |

P = COc1ccc2[nH]c3c(c2c1)CCN(C(=O)C1CC1)C3c1ccc(F)cc1 (stereo unspecified)
Q = NC(=O)C1CCN(C(=O)Cc2cc(-c3cccs3)on2)CC1
Query string: Of the pair P and Q , name the member with the lesser recorded RP-LC retention time. Which one? Tell me its label.
Result string: Q
(Q: 594 s, P: 949 s)

###

# Method description: gradient 5% acetonitrile 3 min, to 50% in 2 min, to 85% in 15 min, held 3 min, 100 µL/min
# Condition info: column: Zorbax Extend-C18 2.1 x 50 mm; eluents: water / acetonitrile, 0.1% formic acid
Test readout: RP-LC retention time (s)

Example entries begin here.
| Molecule | RP-LC retention time, s |
| --- | --- |
| Cc1noc(C)c1-c1ccc(S(=O)(=O)Nc2cccc(Br)c2)cc1 | 1000 |
| Cc1ncoc1C(=O)N1CCC(N2C(=O)C(OCC3CC3)C23CCOCC3)CC1 (stereo not drawn) | 634 |
| CN1CCc2nnc(C3CCN(C(=O)Nc4ccc(Cl)cc4F)C3)n2CC1 (stereo not drawn) | 573 |
| CC(C)OCCCNC(=O)C1CCCN(c2ccc(=O)n(-c3cccc(Cl)c3)n2)C1 (stereo not drawn) | 789 |
| Cn1c(=O)c(C(=O)N2CCCCC2)nc2cccnc21 | 648 |

1 = CCCN(C)C(=O)C1CCN(c2cnn(CCC)c(=O)c2)CC1
2 = COc1ccccc1N1CCN(c2cc(SCC(=O)Nc3cc(F)ccc3F)ncn2)CC1
Query string: Of the pair 1 and 2 , name the member with the lesser recorded RP-LC retention time. Which one? Tell me its label.
Result string: 1

###

# Method description: gradient 5% acetonitrile 3 min, to 50% in 2 min, to 85% in 15 min, held 3 min, 100 µL/min
# Condition info: column: Zorbax Extend-C18 2.1 x 50 mm; eluents: water / acetonitrile, 0.1% formic acid
Test readout: RP-LC retention time (s)

| Molecule | RP-LC retention time, s |
| --- | --- |
| Cc1ccc(-c2cnn3c(N4CCN(c5ccccn5)CC4)cc(C)nc23)cc1 | 751 |
| COc1ccc(CCNC(=O)C2CCc3nc(N4CCCC4)ncc3C2)cc1OC (centres undefined) | 563 |
| Cc1ccccc1NC(=O)NCCc1nc2cccnc2n1C1CCCC1 | 708 |

a = COc1ccc(CNC(=O)C2CCN(S(C)(=O)=O)c3ccccc3O2)cc1 (centres undefined)
b = Clc1ccccc1-c1nc(-c2ccc(-n3cccn3)nc2)no1
Query string: Between the entries labelled a and b , which has a larger RP-LC retention time value on record? Which one? Tell me its label.
Result string: b

P = COCCn1cc2c3c(cccc31)CN(C(=O)Nc1cc(OC)c(OC)c(OC)c1)CC2
Q = Cc1cccc2c(C(N)=O)c3c(nc12)CCC3
Query string: Between the entries labelled P and Q , which has a larger RP-LC retention time value on record? Which one? Tell me its label.
Result string: P
(P: 825 s, Q: 560 s)
